# log p [b] per entry
protocol.notes: logP by HPLC on reversed-phase columns (EEC Directive 79/831 Annex V.A8)
Assay type: physicochemical
particulars: pH 2.7
readout.type: log p [b]

* Fc1cnc(Nc2cccc(C3OCCCO3)c2)nc1NC1CC1 [Example 51] | 1.28[b]
* COCC(C)Nc1nc(Nc2cccc(C3OCCCO3)c2)ncc1Cl (centres unmarked) [Example 56] | 1.69[b]
* FC(F)CNc1nc(Nc2cccc(C3OCCCO3)c2)ncc1Cl [Example 52] | 1.97[b]
* COCC1COC(c2cccc(Nc3ncc(C(F)(F)F)c(NC4CC4)n3)c2)O1 (centres unmarked) [Example 105] | 2.74[b]
* Clc1cnc(Nc2cccc(C3OC4COCC4O3)c2)nc1NC1CC1 (centres unmarked) [Example 32] | 1.55[b]
* CC1(C)COC(c2cccc(Nc3ncc(Cl)c(NC4CC4)n3)c2)OC1 [Example 2] | 2.45[b]
* CC1(C)COC(c2cccc(Nc3ncc(Cl)c(NC4CCC4)n3)c2)OC1 [Example 19] | 2.57[b]
* Clc1cnc(Nc2cccc(C3OCC(CN4CCCC4)O3)c2)nc1NC1CC1 (centres unmarked) [Example 43] | 0.99[b]

====

protocol.notes: logP by HPLC on reversed-phase columns (EEC Directive 79/831 Annex V.A8)
Type: physicochemical
particulars: pH 7.8
readout.type: log p [c]

* Clc1cnc(Nc2cccc(C3OC4CCCCC4O3)c2)nc1NC1CC1 (centres unmarked) [Example 44] | 3.99
* Brc1cnc(Nc2cccc(C3OCC(C4CC4)CO3)c2)nc1NC1CC1 (centres unmarked) [Example 79] | 4.03
* COCC(C)Nc1nc(Nc2cccc(C3OCCCO3)c2)ncc1Cl (centres unmarked) [Example 56] | 2.92

====

protocol.notes: logP by HPLC on reversed-phase columns (EEC Directive 79/831 Annex V.A8)
Type: physicochemical
particulars: pH 2.7
Experimental: The logP values were measured in accordance with EEC Directive 79/831 Annex V.A8 by HPLC (High Performance Liquid Chromatography) on reversed-phase columns (C 18) using the methods below: [a] The determination was carried out in the acidic range at pH 2.3 using the mobile phases 0.1% aqueous phosphoric acid and acetronitrile linear gradient from 10% acetonitrile to 95% acetronitrile. [b] […]
readout.type: log p [b]

• CC1CC(C(F)(F)F)OC(c2cccc(Nc3ncc(Cl)c(NC4CC4)n3)c2)O1 (stereo not drawn) [Example 124] = 2.84[b]
• CC1COC(c2cccc(Nc3ncc(Br)c(NC4CC4)n3)c2)O1 (stereo not drawn) [Example 84] = 2.03
• Ic1cnc(Nc2cccc(C3OCCCO3)c2)nc1NC1CC1 [Example 57] = 2.23[b]
• Cc1cnc(Nc2cccc(C3OCCO3)c2)nc1NC1CC1 [Example 58] = 1.21[b]
• CC1OC(c2cccc(Nc3ncc(Cl)c(NC4CC4)n3)c2)OC1C (stereo not drawn) [Example 3] = 2.2[b]
• C=C1COC(c2cccc(Nc3ncc(Cl)c(NC4CC4)n3)c2)OC1 [Example 92] = 2.01

====

protocol.notes: logP by HPLC on reversed-phase columns (EEC Directive 79/831 Annex V.A8)
Assay type: physicochemical
particulars: pH 2.7
readout.type: log p [b]

- COC(OC)c1cccc(Nc2ncc(Cl)c(NC3CC3)n2)c1: 1.87
- Clc1ccc(Nc2ncc(Cl)c(NC3CC3)n2)cc1C1OCCO1: 2.31
- Brc1cnc(Nc2cccc(C3OCCO3)c2)nc1NC1CCC1: 2.05
- CC(C)(C)C1CCOC(c2cccc(Nc3ncc(Br)c(NC4CC4)n3)c2)O1 (stereo not drawn): 3.34
- FC(F)(F)CNc1nc(Nc2cccc(C3OCCO3)c2)ncc1Cl: 2.35
- C=CCOCC1COC(c2cccc(Nc3ncc(C(F)(F)F)c(NC4CC4)n3)c2)O1 (stereo not drawn): 3.35
- CCC1(c2cccc(Nc3ncc(Cl)c(NC4CC4)n3)c2)OCC(C)O1 (stereo not drawn): 2.67
- CC1CC1Nc1nc(Nc2cccc(C3OCCO3)c2)ncc1C(F)(F)F (stereo not drawn): 3.03
- Brc1cnc(Nc2cccc(C3OCCO3)c2)nc1NC1CC1: 1.75
- CC1OC(c2cccc(Nc3ncc(Cl)c(NC4CC4)n3)c2)OC(C)C1C (stereo not drawn): 2.77
- Clc1cnc(Nc2cccc(C3SCCS3)c2)nc1NC1CC1: 2.42
- FC(F)(F)c1cnc(Nc2ccc(C3OCCCO3)cc2)nc1NC1CC1: 2.72
- COc1ccc(OCC2COC(c3cccc(Nc4ncc(Cl)c(NC5CC5)n4)c3)O2)cc1 (stereo not drawn): 2.64
- Clc1cnc(Nc2cccc(C3OC4CCCCC4O3)c2)nc1NC1CC1 (stereo not drawn): 2.65
- C=CCOCC1COC(c2cccc(Nc3ncc(Br)c(NC4CCC4)n3)c2)O1 (stereo not drawn): 2.77
- Clc1cnc(Nc2cccc(C3OCC4(CCC4)CO3)c2)nc1NC1CC1: 2.6
- Clc1cnc(Nc2cccc(C3OCC(C4CC4)CO3)c2)nc1NC1CC1 (stereo not drawn): 2.6
- CC1(C)COC(C)(c2cccc(Nc3ncc(C(F)(F)F)c(NC4CC4)n3)c2)OC1: 4.32
- CC1(C)COC(C)(c2cccc(Nc3ncc(Cl)c(NC4CC4)n3)c2)OC1: 2.99
